- MEASURED ON: Steryl-sulfatase (Homo sapiens)
- Sequence (whole entry): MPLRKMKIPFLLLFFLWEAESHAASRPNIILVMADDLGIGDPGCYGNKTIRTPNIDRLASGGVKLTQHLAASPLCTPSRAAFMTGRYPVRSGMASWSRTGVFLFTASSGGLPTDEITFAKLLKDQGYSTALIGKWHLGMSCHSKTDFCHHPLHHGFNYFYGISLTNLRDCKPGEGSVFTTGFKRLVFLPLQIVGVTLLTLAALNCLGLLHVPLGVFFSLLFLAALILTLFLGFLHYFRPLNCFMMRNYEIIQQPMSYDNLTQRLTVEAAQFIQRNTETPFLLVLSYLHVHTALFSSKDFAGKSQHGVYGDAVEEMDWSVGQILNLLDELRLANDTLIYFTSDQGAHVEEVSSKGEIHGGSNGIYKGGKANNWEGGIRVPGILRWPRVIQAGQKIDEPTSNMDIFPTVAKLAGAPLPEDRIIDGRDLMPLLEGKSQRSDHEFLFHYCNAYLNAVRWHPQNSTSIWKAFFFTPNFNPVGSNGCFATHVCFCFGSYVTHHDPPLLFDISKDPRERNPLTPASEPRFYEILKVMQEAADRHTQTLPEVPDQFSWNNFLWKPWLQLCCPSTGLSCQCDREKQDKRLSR
- RUN DESCRIPTION: Inhibition of steroid sulfatase in human JEG3 cell lysates assessed as residual activity at 10 uM using [3H] E1S as substrate after 1 hr by scintillation spectrometry analysis relative to control; values are per cent of control
- DETAILS: Lysate
ENDPOINT: residual activity

Note residual activity for the molecule shown: COc1cccc(N2CCN(C(=O)Nc3ccc(OS(N)(=O)=O)cc3)CC2)c1
26.3%

Note residual activity for the molecule shown: CCCCCCCCN1CCN(C(=O)Nc2ccc(OS(N)(=O)=O)cc2Cl)CC1
71.6%

Note residual activity for the molecule shown: NS(=O)(=O)Oc1ccc(NC(=O)N2CCN(Cc3ccccc3)CC2)cc1
18.7%

---
Note residual activity for the molecule shown: CCCCCCCCN1CCN(C(=O)Nc2ccc(OS(N)(=O)=O)cc2F)CC1
29.6%

---

- MEASURED ON: Steryl-sulfatase (Homo sapiens)
- RUN DESCRIPTION: Inhibition of steroid sulfatase in human JEG3 cell lysates assessed as residual activity at 10 uM using [3H] E1S as substrate after 1 hr by scintillation spectrometry analysis relative to control; values are per cent of control
- DETAILS: Lysate
# label = Criterion met if residual activity >= 30% else Criterion not met

The following molecules have reported results that may help.
Does the molecule CCCCCCCN1CCN(C(=O)Nc2ccc(OS(N)(=O)=O)cc2)CC1 have recorded residual activity that is 30% or more?
Criterion not met

Does the molecule CCCCCCCCN1CCN(C(=O)Nc2ccc(OS(N)(=O)=O)c(F)c2)CC1 have recorded residual activity that is 30% or more?
Criterion not met

---
Does the molecule COc1ccc(N2CCN(C(=O)Nc3ccc(OS(N)(=O)=O)cc3)CC2)cc1 have recorded residual activity that is 30% or more?
Criterion met

Does the molecule Cc1cccc(N2CCN(C(=O)Nc3ccc(OS(N)(=O)=O)cc3)CC2)c1 have recorded residual activity that is 30% or more?
Criterion not met

Does the molecule CCCCCCCCCCN1CCN(C(=O)Nc2ccc(OS(N)(=O)=O)c(Cl)c2)CC1 have recorded residual activity that is 30% or more?
Criterion not met
